molecular target: T1, purified recombinant 161P2F10B extracellular domain (Tag5-161P2F10B ECD, amino acids 46-875) (human, UniProt O14638 46-875); experiment: SPR (BIAcore), MAb captured on chip, recombinant 161P2F10B injected, 1:1 fit;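 note: purified human MAbs immobilised by capture on a CM5 chip surface, about 150 RU of antibody per cycle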
T1 construct: also called full length ECD
measurement kind: Kd (nM)

>>> observed_result("H16-1(3,5)5 (antibody, V domains shown, Entries hold the leader (or part of it) and a portion of the constant region; also called Ha16-1(3,5)5) VH: EVQLVQSGAEVKKPGESLKISCKGSGYRFTSYWIGWVRQMPGKGLEWMGIIYPGDSDTRYSPSFQGQVTISADKSISTAYLQWSSLKASDTAMYYCARKDYYYYTMDVWGQGTTVTVSS VL: QSALTQPASVSGSPGQSITISCTGTSSDVGGYNYVSWYQQHPGKAPKLMIYAVSNRPSGVSNRFSGSKSGNTASLTISGLQAEDEADYYCSSYTISRILVVFGGGTKLTVLG")
7.2

Values were extracted from patent US20090022663A1.
